readout.kind: melting point

{"columns": ["molecule", "result"],
 "data": [
  ["CCOC(=O)c1ccc(Br)c(OC(F)F)c1Br", "45 to 47 °C"],
  ["C#CCc1c(C)nc2c(OCc3ccccc3OC)cccn12", "134 to 136 °C"],
  ["COc1ccc(CN2CCc3cc(OCc4ccccc4)c(OC)cc3C2)cc1", "96 to 97 °C"],
  ["COC(=O)c1cccc(Oc2ncccc2C(=O)NCc2ccccc2)c1", "119 to 120 °C"],
  ["O=CN1CCN(c2nc3ccc(Cl)ccc-3n2)CC1", "228 to 229 °C"],
  ["COC(=O)c1cc2ncnn2nc1NCCCN1CCC(OC(c2ccccc2)c2ccccc2)CC1", "120 to 122 °C"],
  ["ON=Cc1c[nH]cc1-c1cccc(Cl)c1Cl", "158 to 160 °C"],
  ["CCN(CC1CCCC1)c1nc2c(cc1CN(Cc1cc(C(F)(F)F)cc(C(F)(F)F)c1)c1nc(C(F)(F)F)co1)c(C)nn2C", "139 °C"],
  ["CCCC(=O)Nc1n[nH]c2c([N+](=O)[O-])c(Br)c([N+](=O)[O-])cc12", "260 °C"],
  ["CC(C)c1nc(-c2ccccc2)n(-c2ccc(F)cc2)c1C=O", "159 to 161 °C"],
  ["COCc1cc(C(O)CNCCCCCOCCc2ccc(F)cc2)ccc1O (stereo not given)", "86 to 87 °C"],
  ["CCc1cn2ccccc2c1S(=O)(=O)c1ccc(OCCCn2ccnc2)cc1", "130 to 131 °C"],
  ["FC(F)(F)c1ccc2nc(N3CCN(c4ncncc4Cl)CC3)[nH]c2c1", "66.6 to 66.7 °C"],
  ["CCOC(=O)C1=Cc2cccc(C(N)=O)c2OCC1", "120 to 125 °C"],
  ["CCCCc1c2c(nn1CCC)c(N)nc1ccccc12", "164 to 166 °C"],
  ["CCOC(=O)C1CCN(C(=O)CCCOc2ccc3nc4[nH]c(=O)[nH]c4cc3c2)CC1", "251 to 253 °C"],
  ["CC(NC(=O)c1cc(Cl)cc(Br)c1N)C1CC1 (stereo not given)", "177 °C"],
  ["CN(C)c1ccc(NC(=O)c2cc3cc(C(F)(F)F)ccc3n2Cc2cccc(F)c2)cn1", "192 to 193 °C"],
  ["CC(C)(C)OC(=O)NCc1cccc(OCCC2Oc3ccccc3N(Cc3ccccc3Cl)C2=O)c1 (stereo not given)", "115 to 116 °C"],
  ["COc1cc(C(C)C)c2c(c1)S(=O)(=O)N(COc1cc(C(F)(F)F)nn1-c1ccc(Cl)cc1)C2=O", "160 to 161 °C"]
]}

---

Readings of melting point for the listed compounds

{"columns": ["compound", "melting point"],
 "data": [
  ["O=C1N=C(NN2CCCC2)SC1=Cc1cccc(-c2cc(F)c(O)c(C34CC5CC(CC(C5)C3)C4)c2)c1", "293 to 296 °C"],
  ["CCOC(=O)C(=NO)c1ccc(Oc2ccccc2)cc1", "131 to 132 °C"],
  ["CCCCCCCCCCCCCCCCNC(=O)OCC(CO)OC (stereo not given)", "47.5 to 48 °C"],
  ["CC(C)(C)C(=O)C(Br)Oc1ccc(Cl)cc1Cl (stereo not given)", "70 °C"],
  ["CC1(C)Oc2ccc(C#N)cc2C2C1OC(=O)CN2c1ccccc1 (stereo not given)", "241 to 243 °C"]
]}

---

Residues, ends and D or L forms follow the SMILES beside them. *: point of attachment. For = O=C*
Readings of melting point for the listed compounds

{"columns": ["compound", "melting point"],
 "data": [
  ["CCNC(=O)Nc1cc(-c2sc(CC)nc2-c2cccc(C)c2)ccn1", "160 to 162 °C"],
  ["CCCCCCCCCCCOc1ccc(C(=O)O)cc1OCCCCCCCCCCC", "98 to 101 °C"],
  ["Cc1sc(C(=O)NCc2ccc3c(c2)OCO3)cc1NC(=O)NCc1ccccc1", "194 to 195 °C"],
  ["Cc1ccc(/C=C/C(=O)N[C@@H]2N=C(c3ccccc3)c3ccccc3N(C)C2=O)cc1", "133 to 135 °C"],
  ["CC(C)CCCNC1c2ccccc2C(=O)N1c1ccc2ccc(Cl)nc2n1 (stereo unspecified)", "131 °C"],
  ["CC(C)OC1=CC2=CCC3C4CCC(=O)C4(C)CCC3C2(C)CC1 (stereo unspecified)", "147 to 151 °C"],
  ["CN(Cc1ccc(NC(=O)C2=Cc3cc(-c4ccc(C(F)(F)F)cc4)ccc3S(=O)(=O)CC2)cc1)C1CCOCC1", "270 to 272 °C"],
  ["COn1c(=O)c2ccccc2n(-c2c(Cl)ccc(C)c2Cl)c1=O", "211 to 213 °C"],
  ["CC1(C)CS(=O)(=O)CC(C)(C)N1N=O", "184 °C"],
  ["COc1ccc(Cc2ncc(CO)c3cc(OC)c(OC)cc23)cc1OC", "140 to 146 °C"],
  ["Cc1ncncc1C(=O)Nc1ccc(-n2nc(C(F)(F)F)cc2C2CC2)c(F)c1", "101 to 103 °C"],
  ["COc1cc(N)c(C(=O)N(C)C)cc1OC", "94 to 103 °C"],
  ["N#Cc1ccc(NC(=O)[C@H]2NCC[C@@H]2O)c2ccccc12", "174 to 176 °C"],
  ["COc1cc(N)ccc1CN1C(=O)C(C)(c2ccccc2Cl)c2cc(Cl)ccc21 (stereo unspecified)", "232 °C"],
  ["CN(C)C(=O)Nc1cccc(C#N)n1", "125 °C"],
  ["O=CNC(CC(=O)O)C(=O)NC(Cc1ccccc1)C(=O)O (stereo not drawn) (For-Asp-Phe-OH; configuration not given here)", "180 to 182 °C"],
  ["CC(C)(C)OC(=O)NCc1ccc(CN2CCC(c3ccccc3)CC2)cc1", "73 to 74 °C"],
  ["CCc1ccccc1-c1nc(-c2ccccc2)n[nH]1", "124 to 126 °C"],
  ["C#C[C@@]1(O)[C@@H](COC(=O)c2ccc(Cl)cc2)OC(O)[C@@H]1O (stereo partly specified)", "116 to 118 °C"],
  ["CCCCc1ccc(C(=O)Nc2ccc3cc(CN4CCCC4)cnc3c2C)cc1", "131 °C"],
  ["O=C(NCc1cccnc1)c1ccc2n1Cc1ccccc1N(C(=O)c1ccc(-c3ccccc3C=NO)cc1)C2", "165 to 167 °C"],
  ["Cc1nc(N2CCc3ccccc3CC2)c(C#N)c(=O)n1OC(C)C", "127 to 128 °C"],
  ["O=C1C=C(C(=O)c2ccccc2[N+](=O)[O-])CC(c2ccccc2)N1 (stereo unspecified)", "139 to 141 °C"],
  ["O=c1c2ccc(-c3nnn[nH]3)cc2[nH]c2ccc(-c3nnn[nH]3)cc12", "> 350 °C"],
  ["O=C1NC(=O)C(Oc2ccc3ccccc3c2)S1 (stereo unspecified)", "221 to 222 °C"],
  ["CCCCOC(=O)N1C(=O)[C@H](O)[C@@H]1c1ccccc1", "88 to 89 °C"],
  ["Nc1c(CC(=O)O)cccc1Nc1ccccc1Cl", "230 to 232 °C"],
  ["Cc1nc(-c2ccc(S(N)(=O)=O)c(F)c2)c(-c2ccc(-c3cscn3)cc2)o1", "192 to 194 °C"],
  ["COc1cc(C#N)ccc1C(Br)Br", "78 to 79 °C"],
  ["Nc1cccc2c1CCNC2", "153 to 154 °C"],
  ["Cc1cc(NC(=O)c2cc(Cl)cc(C)n2)ccn1", "162 °C"],
  ["CCCOc1ccccc1-c1nc2cc3ncn(CC(C)C4CCCCC4)c3cc2c(=O)[nH]1 (stereo unspecified)", "178 to 180 °C"],
  ["COc1cc2c(cc1OC)CC(=O)N(Cc1cccnc1)C=C2", "144 to 146 °C"],
  ["O=c1oc2ccc(-c3ccc(F)cc3F)cc2c(=O)n1-c1ccc(F)c(F)c1", "193 to 194 °C"],
  ["Cc1cccc(C)c1NC(=O)CS(C)=O (stereo unspecified)", "112 to 114 °C"],
  ["CC(C)n1nc(-c2cc(C#N)c(Cl)nc2-c2ccccc2)ccc1=O", "191 to 192 °C"],
  ["Cc1cc2c3c(cccc3c1)C(=O)N(O)C2=O", "251 to 253 °C"],
  ["CCCCN(Cc1ccc(-c2ccccc2-c2nnn[nH]2)cc1)c1ncccc1C(=O)O", "203 to 205 °C"],
  ["CCC12CCC3=C(CCc4cc(OC(C)=O)ccc43)C1=CCC2=O (stereo unspecified)", "122 to 124 °C"],
  ["CCCN(CC)C(=O)c1ccc(CN2C(=O)C(c3ccccc3Cl)(N(C)C)c3cc(Cl)ccc32)cc1 (stereo unspecified)", "208 °C"],
  ["Cc1ccc(C(N)=S)c2ccccc12", "143 to 145 °C"]
]}
